FYI, the data here is from ChEMBL document CHEMBL1121682.

# ASSAY_PROCEDURE: Concentration producing 50% inhibition of carbonic anhydrase taken from mouse erythrocytes
Threshold-based label: Concentration under 9 nM gives T, Concentration not under 9 nM gives F.

INSERT INTO measurements (compound, class_name) VALUES
  ('NS(=O)(=O)c1cc(Br)c(S(=O)(=O)c2ccccc2)s1', 'T'),
  ('NS(=O)(=O)c1ccc(S(=O)(=O)c2ccccc2)cc1', 'F'),
  ('COC1CCN(S(=O)(=O)c2ccc(S(N)(=O)=O)c(Cl)c2)CC1', 'F'),
  ('NS(=O)(=O)c1ccc(Sc2ccc(Cl)cc2)s1', 'T'),
  ('NS(=O)(=O)c1ccc([S+]([O-])c2ccc(Cl)cc2)s1 (configuration not stated)', 'F'),
  ('CC(=O)Nc1nnc(S(N)(=O)=O)s1 [ACETAZOLAMIDE]', 'F');

====

Each record here notes measured pKa.
# ASSAY_PROCEDURE: Dissociation constant in water
# Format: physicochemical
RESULT_TYPE: pKa

INSERT INTO results (compound, measured) VALUES
  ('NS(=O)(=O)c1ccc(S(=O)(=O)c2ccccc2)cc1', 9.1),
  ('NS(=O)(=O)c1cc(Br)c(S(=O)(=O)c2ccccc2)s1', 7.98),
  ('NS(=O)(=O)c1ccc([S+]([O-])c2ccc(Cl)cc2)s1 (centres undefined)', 8.57),
  ('NS(=O)(=O)c1ccc(S(=O)(=O)c2ccc(F)cc2)s1', 8.29);
